Source listed as patent US9388141B2.

experimental system: human dopamine D2L receptors (long isoform) (Homo sapiens, UniProt P14416)
Construct: expressed in transfected cells; host or cells: HEK-293
Sequence (P14416 whole entry, canonical isoform): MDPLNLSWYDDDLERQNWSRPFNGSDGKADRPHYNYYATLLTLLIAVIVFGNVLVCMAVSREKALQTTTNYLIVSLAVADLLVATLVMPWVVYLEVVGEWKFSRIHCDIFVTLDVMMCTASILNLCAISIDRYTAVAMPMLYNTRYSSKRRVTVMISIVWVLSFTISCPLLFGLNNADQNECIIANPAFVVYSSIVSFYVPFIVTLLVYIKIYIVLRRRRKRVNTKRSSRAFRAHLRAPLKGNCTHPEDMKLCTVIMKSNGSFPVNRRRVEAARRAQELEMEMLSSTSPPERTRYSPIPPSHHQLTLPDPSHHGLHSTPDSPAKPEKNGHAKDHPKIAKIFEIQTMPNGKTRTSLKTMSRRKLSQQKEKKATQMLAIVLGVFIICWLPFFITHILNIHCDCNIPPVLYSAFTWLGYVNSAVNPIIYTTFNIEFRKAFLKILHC
assay remarks: Dopamine D2L receptor binding, [125I]-iodospiperone displacement
test parameters: selectivity ratio Ki (D2L)/Ki (D3)
measure: D2/D3, Ki (D2L)/Ki (D3)

>>> test_result("CC(C)(C)c1nc(C2CCC2)cc(N2CCN(CC[C@H]3C[C@H](NC(=O)[C@H]4CC[C@@H](O)CC4)C3)CC2)n1.O=C(O)C(F)(F)F")
"++ (++>20)"
>>> test_result("COCCc1cc(N2CCN(CC[C@H]3CC[C@H](NC(=O)[C@H]4CC[C@H](O)CC4)CC3)C[C@H]2C)nc(C(C)(C)C)n1")
"+++ (+++>50)"
>>> test_result("CC(C)(C)c1nc(C2CCC2)cc(N2CCN(CC[C@H]3CC[C@@H](NC(=O)[C@H]4CC[C@H](O)CC4)CC3)CC2)n1")
"+++ (+++>50)"
>>> test_result("CC(C)(C)c1nc(C2CCC2)cc(N2CCN(CC[C@H]3C[C@H](NC(=O)[C@H]4CC[C@H](O)CC4)C3)CC2)n1")
"+++ (+++>50)"
>>> test_result("CC(C)(C)c1nc(C2CCC2)cc(N2CCN(CC[C@H]3CC[C@@H](NC(=O)[C@H]4CC[C@@H](O)CC4)CC3)CC2)n1.O=C(O)C(F)(F)F")
"+++ (+++>50)"

Proceed to the following item.
## Task Reported D2/D3, Ki (D2L)/Ki (D3), molecule `COCCc1cc(N2CCN(CC[C@H]3C[C@@H](NC(=O)[C@H]4CC[C@@H](O)CC4)C3)CC2)nc(C(C)(C)C)n1` : ____
## Result +++ (+++>50)

----------
Record set of Ki for target or system UniProtKB P35462.
Sequence (P35462 whole entry): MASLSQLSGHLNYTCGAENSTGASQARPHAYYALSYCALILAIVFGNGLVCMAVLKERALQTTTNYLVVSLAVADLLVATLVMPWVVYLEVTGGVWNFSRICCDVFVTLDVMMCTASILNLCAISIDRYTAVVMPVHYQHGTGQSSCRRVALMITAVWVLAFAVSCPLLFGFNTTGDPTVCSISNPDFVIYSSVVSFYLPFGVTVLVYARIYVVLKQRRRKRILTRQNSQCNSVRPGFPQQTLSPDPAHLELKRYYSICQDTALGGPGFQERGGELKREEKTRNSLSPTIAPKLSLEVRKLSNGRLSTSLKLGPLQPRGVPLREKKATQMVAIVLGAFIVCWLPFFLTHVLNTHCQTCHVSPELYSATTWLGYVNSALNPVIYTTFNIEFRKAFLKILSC

>>> test_result("COCCc1cc(N2CCN(CC[C@H]3CC[C@H](NC(=O)[C@H]4C[C@@H](O)C4)CC3)CC2)nc(C(C)(C)C)n1")
"< 10 nM"
>>> test_result("COCCc1cc(N2CCN(CC[C@H]3C[C@@H](NC(=O)[C@H]4CC[C@@H](O)CC4)C3)CC2)nc(C(C)(C)C)n1")
"< 50 nM"
>>> test_result("COCCc1cc(N2CCN(CC[C@H]3C[C@@H](NC(=O)[C@H]4CC[C@H](O)CC4)C3)CC2)nc(C(C)(C)C)n1.O=C(O)C(F)(F)F")
"< 10 nM"

Alright, here's another compound for you.
## Task GET /values?readout=Ki&system=UniProtKB P35462&item= `CC(C)(C)c1nc(C2CCC2)cc(N2CCN(CC[C@H]3C[C@H](NC(=O)[C@H]4CC[C@H](O)CC4)C3)CC2)n1`
## Result < 10 nM

----------
experimental system: hERG cardiac K+ channel (Homo sapiens, UniProt Q12809)
Sequence (Q12809 whole entry): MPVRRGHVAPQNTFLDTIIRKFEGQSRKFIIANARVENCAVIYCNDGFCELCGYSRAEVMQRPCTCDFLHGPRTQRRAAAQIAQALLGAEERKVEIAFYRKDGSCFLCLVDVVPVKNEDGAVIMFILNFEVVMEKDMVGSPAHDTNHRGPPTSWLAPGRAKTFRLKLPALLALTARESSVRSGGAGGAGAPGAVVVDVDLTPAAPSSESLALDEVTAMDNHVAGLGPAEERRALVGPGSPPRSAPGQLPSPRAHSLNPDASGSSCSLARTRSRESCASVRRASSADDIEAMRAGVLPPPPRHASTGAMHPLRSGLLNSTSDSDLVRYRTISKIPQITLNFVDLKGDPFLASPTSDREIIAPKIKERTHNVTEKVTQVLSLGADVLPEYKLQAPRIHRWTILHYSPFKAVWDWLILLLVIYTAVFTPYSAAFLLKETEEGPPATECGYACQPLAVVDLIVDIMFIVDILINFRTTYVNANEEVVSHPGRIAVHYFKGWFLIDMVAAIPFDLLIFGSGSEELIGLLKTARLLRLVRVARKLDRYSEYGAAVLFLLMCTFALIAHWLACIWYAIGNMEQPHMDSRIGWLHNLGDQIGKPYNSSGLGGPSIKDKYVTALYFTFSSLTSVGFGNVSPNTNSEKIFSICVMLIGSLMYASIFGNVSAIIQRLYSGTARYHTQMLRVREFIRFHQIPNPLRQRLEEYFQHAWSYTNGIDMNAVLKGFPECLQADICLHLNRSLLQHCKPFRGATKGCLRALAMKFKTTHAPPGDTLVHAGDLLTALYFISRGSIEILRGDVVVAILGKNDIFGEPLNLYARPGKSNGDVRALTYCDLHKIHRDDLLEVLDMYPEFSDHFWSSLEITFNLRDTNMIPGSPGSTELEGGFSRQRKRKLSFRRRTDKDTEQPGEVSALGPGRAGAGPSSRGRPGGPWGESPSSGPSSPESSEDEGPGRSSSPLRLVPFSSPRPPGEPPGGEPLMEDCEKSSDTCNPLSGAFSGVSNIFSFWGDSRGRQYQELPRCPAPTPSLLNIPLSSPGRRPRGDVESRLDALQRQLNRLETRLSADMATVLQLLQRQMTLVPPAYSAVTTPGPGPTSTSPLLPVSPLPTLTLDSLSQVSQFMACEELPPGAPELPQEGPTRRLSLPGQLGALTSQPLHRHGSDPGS
assay remarks: Blocking the hERG channel, [3H]dofetilide displacement
test parameters: membrane homogenate of HEK 293 cells with hERG K+ channels
measure: IC50

## Task For the record CC(C)(C)c1nc(C2CCC2)cc(N2CCN(CC[C@H]3CC[C@H](NC(=O)[C@H]4CC[C@H](O)CC4)CC3)CC2)n1 [Compound 1] , what value of IC50 is listed for hERG cardiac K+ channel (Homo sapiens, UniProt Q12809)?
## Result > 10 µM
